Quick list: AC50 per entry.
# Tgt: human CYP2C19 (Homo sapiens, UniProt P33261)
# Sequence (P33261 whole entry): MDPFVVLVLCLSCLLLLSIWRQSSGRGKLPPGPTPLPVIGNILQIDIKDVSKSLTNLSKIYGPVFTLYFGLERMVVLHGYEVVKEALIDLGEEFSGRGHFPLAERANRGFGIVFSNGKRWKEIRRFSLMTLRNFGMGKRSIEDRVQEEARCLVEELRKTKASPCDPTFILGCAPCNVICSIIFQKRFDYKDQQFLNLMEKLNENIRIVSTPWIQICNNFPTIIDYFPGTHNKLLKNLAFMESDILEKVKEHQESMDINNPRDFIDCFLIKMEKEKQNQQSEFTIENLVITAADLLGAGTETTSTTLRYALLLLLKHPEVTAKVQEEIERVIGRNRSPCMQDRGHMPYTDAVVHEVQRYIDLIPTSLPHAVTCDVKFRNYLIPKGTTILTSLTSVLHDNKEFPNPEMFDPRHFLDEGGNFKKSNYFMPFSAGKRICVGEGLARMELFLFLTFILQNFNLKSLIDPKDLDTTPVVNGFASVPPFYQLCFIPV
Number in µM, nothing else.

Compound | Endpoint unit | AC50
CO/C=C(/C(=O)OC)c1ccccc1COc1cccc(C(F)(F)F)n1 | µM | 0.99

[Q] Answer briefly: AC50 recorded on human CYP2C19 (Homo sapiens, UniProt P33261) for O=C(O)CC(C(=O)O)S(=O)(=O)O (stereo not shown)
[A] 11.9

[Q] Answer briefly: AC50 recorded on human CYP2C19 (Homo sapiens, UniProt P33261) for CC(c1ccc(O)cc1)c1ccc(O)cc1
[A] 33.5

[Q] Answer briefly: AC50 recorded on human CYP2C19 (Homo sapiens, UniProt P33261) for CCN(CC)c1ccc(C=O)c(O)c1
[A] 50.6

[Q] Answer briefly: AC50 recorded on human CYP2C19 (Homo sapiens, UniProt P33261) for NC(=O)Nc1nc2ccccc2[nH]1
[A] 47.2

[Q] Answer briefly: AC50 recorded on human CYP2C19 (Homo sapiens, UniProt P33261) for CCCCN1C(=O)c2ccccc2C1=O
[A] 26.6

[Q] Answer briefly: AC50 recorded on human CYP2C19 (Homo sapiens, UniProt P33261) for CC(C)COC(=O)C=Cc1ccccc1 [Isobutyl 3-phenylacrylate]
[A] 80

[Q] Answer briefly: AC50 recorded on human CYP2C19 (Homo sapiens, UniProt P33261) for CCOC(=O)COc1ccc(Cl)cc1Cl
[A] 26.8

[Q] Answer briefly: AC50 recorded on human CYP2C19 (Homo sapiens, UniProt P33261) for c1ccc(CCCc2ccccn2)cc1
[A] 7.19

[Q] Answer briefly: AC50 recorded on human CYP2C19 (Homo sapiens, UniProt P33261) for Cc1ccc([N+](=O)[O-])c(N)c1
[A] 39.6

* * *

Assay read-out CYP2C9 Efficacy; system under study: human CYP2C9 (Homo sapiens, UniProt P11712).
Sequence (P11712 whole entry): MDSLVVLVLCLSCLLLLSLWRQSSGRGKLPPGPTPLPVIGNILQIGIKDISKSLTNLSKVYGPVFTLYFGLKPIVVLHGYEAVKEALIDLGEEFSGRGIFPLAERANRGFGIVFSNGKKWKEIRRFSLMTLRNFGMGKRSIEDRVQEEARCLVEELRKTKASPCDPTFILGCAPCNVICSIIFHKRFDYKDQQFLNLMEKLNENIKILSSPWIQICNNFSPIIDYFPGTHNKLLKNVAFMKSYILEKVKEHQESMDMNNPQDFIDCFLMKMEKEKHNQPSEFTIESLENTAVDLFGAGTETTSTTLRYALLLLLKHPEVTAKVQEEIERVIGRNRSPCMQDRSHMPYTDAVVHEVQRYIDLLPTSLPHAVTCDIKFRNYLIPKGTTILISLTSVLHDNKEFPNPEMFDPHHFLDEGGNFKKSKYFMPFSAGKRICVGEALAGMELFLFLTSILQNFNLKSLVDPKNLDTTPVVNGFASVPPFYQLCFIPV

[Q] Give the measured CYP2C9 Efficacy for Cc1cc(N=Nc2ccccc2C)ccc1N
[A] 5.45 ± 1.48 (-102 ± 10) %

[Q] Give the measured CYP2C9 Efficacy for Cl.ClCCCN1CCN(c2cccc(Cl)c2)CC1
[A] 16.75 ± 1.09 (-48 ± 5) %

[Q] Give the measured CYP2C9 Efficacy for COc1cc2c(cc1OC)C(C(C(=O)N(CCc1ccc(OC)c(OC)c1OC)CCc1ccc(OC)c(OC)c1OC)c1ccccc1)=NCC2.Cl (centres unmarked) [Pinokalant hydrochloride]
[A] 11.86 ± 0.77 (-103 ± 7) %

[Q] Give the measured CYP2C9 Efficacy for OCC(c1ccc(Cl)cc1)c1ccc(Cl)cc1
[A] 11.71 ± 0.79 (-108 ± 10) %

[Q] Give the measured CYP2C9 Efficacy for CC(=O)CCc1ccc2c(c1)OCO2
[A] 22.26 ± 9.54 (-102 ± 10) %

[Q] Give the measured CYP2C9 Efficacy for CCOC(=O)c1ccc(OC(=O)CCCCCN=C(N)N)cc1.CS(=O)(=O)O [Gabexate mesilate]
[A] 10.33 ± 4.77 (82 ± 30) %

[Q] Give the measured CYP2C9 Efficacy for CC[C@H]1C[C@@H]2C[C@H]3c4[nH]c5ccc(OC)cc5c4CCN(C2)[C@@H]13.Cl [Ibogaine hydrochloride]
[A] 44.07 ± 15.72 (-45 ± 10) %

[Q] Give the measured CYP2C9 Efficacy for CCCCCCCCCCCCCCCCCC[N+](C)(C)Cc1ccccc1.[Cl-]
[A] 38.84 ± 2.53 (-102 ± 5) %

* * *

Quick list: AC50 per entry.
# Tgt: human CYP2C19 (Homo sapiens)
# Assay: biochemical
# Details: CYP2C19 AC50 (half-maximal activity concentration)
Counter-ions that a name gives are not always drawn.
Number in µM, nothing else.

The following compounds have reported results that may help.
Compound | AC50, µM
CCOCN(C(=O)CCl)c1c(C)cccc1CC | 9.51
CNC(=O)Oc1cc(C)cc(C(C)C)c1 | 42.2
CN(C/C=C/c1ccccc1)Cc1cccc2ccccc12 [Naftifine hydrochloride] | 5.52
CCC(C)(C)c1ccc(O)cc1 | 4.21

[Q] Answer briefly: AC50 recorded on human CYP2C19 (Homo sapiens) for Cl[C@H]1[C@H](Cl)[C@@H](Cl)[C@@H](Cl)[C@H](Cl)[C@H]1Cl
[A] 35.7

[Q] Answer briefly: AC50 recorded on human CYP2C19 (Homo sapiens) for CN1CCC(=C2c3ccccc3Sc3ccccc32)CC1 [Pimethixene maleate]
[A] 21.7

[Q] Answer briefly: AC50 recorded on human CYP2C19 (Homo sapiens) for O=S(=O)(Oc1ccc(Cl)cc1Cl)c1ccccc1 [2,4-Dichlorophenyl benzenesulfonate]
[A] 0.77

[Q] Answer briefly: AC50 recorded on human CYP2C19 (Homo sapiens) for CCCSP(=O)(OCC)Oc1ccc(Br)cc1Cl (stereo not shown)
[A] 4.22

[Q] Answer briefly: AC50 recorded on human CYP2C19 (Homo sapiens) for O[Si](c1ccccc1)(c1ccccc1)c1ccccc1
[A] 0.57

[Q] Answer briefly: AC50 recorded on human CYP2C19 (Homo sapiens) for CC(CCc1ccccc1)NC(C)C(O)c1ccc(O)cc1 (stereo not shown)
[A] 9.42

* * *

# Tgt: UniProt:P10635
# Sequence (P10635 whole entry): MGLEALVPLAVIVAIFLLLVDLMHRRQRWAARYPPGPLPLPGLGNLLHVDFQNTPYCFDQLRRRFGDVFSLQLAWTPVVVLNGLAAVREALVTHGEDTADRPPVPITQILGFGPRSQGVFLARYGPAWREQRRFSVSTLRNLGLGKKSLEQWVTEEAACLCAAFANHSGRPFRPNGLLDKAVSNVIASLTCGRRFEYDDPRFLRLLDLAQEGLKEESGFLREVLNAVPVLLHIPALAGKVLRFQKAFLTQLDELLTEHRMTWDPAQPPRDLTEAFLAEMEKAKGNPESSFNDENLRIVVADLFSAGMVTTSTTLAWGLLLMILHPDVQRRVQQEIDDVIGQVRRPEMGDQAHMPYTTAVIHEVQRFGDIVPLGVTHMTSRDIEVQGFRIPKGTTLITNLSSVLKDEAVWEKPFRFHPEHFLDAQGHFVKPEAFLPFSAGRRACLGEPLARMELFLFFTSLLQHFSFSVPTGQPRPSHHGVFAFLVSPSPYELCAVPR
# Assay: biochemical
# Details: CYP2D6 AC50 (half-maximal activity concentration)
Structures can show the parent of a compound that is named as a salt.
Quick rule for you: AC50 under 10 µM gets T, anything else gets F.

Compound | Category
O=S(=O)(Oc1ccc(Cl)cc1Cl)c1ccccc1 [2,4-Dichlorophenyl benzenesulfonate] | F
O=c1[nH]sc2ccccc12 [1,2-Benzisothiazolin-3-one] | F
CC[N+](CC)(CC)CCOc1ccc(/C=C/c2ccccc2)cc1 [Stilonium iodide] | F
O=C1C=CC(=O)N1c1ccc(Cc2ccc(N3C(=O)C=CC3=O)cc2)cc1 [Bismaleimide] | F
CN1CCc2cc(Cl)c(O)cc2[C@H]2c3ccccc3CC[C@@H]21 [Ecopipam] | T
O=C(c1ccccc1)c1ccc(O)cc1 [4-Hydroxybenzophenone] | F
Cc1ccc(C(=O)c2ccccc2)cc1 [4-Methylbenzophenone] | F
CC(COc1ccccc1)NC(C)C(O)c1ccc(O)cc1 (centres unmarked) [Isoxsuprine hydrochloride] | T

[Q] I wonder whether CCCCOc1ccc(C(=O)CCN2CCCCC2)cc1 [Dyclonine hydrochloride] has AC50 below 10 µM. Can you tell?
[A] T

[Q] I wonder whether COc1ccccc1N1CCN(CCCNc2cc(=O)n(C)c(=O)n2C)CC1 [Urapidil hydrochloride] has AC50 below 10 µM. Can you tell?
[A] F

[Q] I wonder whether Clc1ccc(C(c2ccccc2Cl)C(Cl)Cl)cc1 (centres unmarked) [o,p'-DDD] has AC50 below 10 µM. Can you tell?
[A] F

[Q] I wonder whether O=C(C(=O)c1ccccc1)c1ccccc1 [1,2-Diphenylethanedione] has AC50 below 10 µM. Can you tell?
[A] F

[Q] I wonder whether C#CC(C)N(C)C(=O)Nc1ccc(Cl)cc1 (centres unmarked) [Buturon] has AC50 below 10 µM. Can you tell?
[A] F

* * *

Quick list: AC50 per entry.
# Tgt: CYP3A4 (Homo sapiens)
# Sequence (P08684 whole entry): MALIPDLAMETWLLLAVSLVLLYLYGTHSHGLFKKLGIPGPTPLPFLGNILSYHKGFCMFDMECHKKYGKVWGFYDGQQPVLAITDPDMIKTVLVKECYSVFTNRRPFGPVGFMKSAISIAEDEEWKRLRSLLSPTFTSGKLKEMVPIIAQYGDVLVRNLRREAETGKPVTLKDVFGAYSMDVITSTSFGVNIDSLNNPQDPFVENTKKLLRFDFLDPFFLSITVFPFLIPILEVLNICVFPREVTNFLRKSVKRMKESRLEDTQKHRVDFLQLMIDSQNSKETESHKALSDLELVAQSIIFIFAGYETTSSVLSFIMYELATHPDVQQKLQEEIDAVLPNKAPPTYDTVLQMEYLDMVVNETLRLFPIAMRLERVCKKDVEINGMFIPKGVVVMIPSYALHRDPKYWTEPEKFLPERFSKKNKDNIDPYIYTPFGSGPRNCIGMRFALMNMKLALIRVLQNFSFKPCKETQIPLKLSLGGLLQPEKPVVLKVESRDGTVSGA
# Assay: biochemical
# Details: CYP3A4 AC50 (half-maximal activity concentration)
Please answer using a numeric value trailed by its unit.

The following compounds have reported results that may help.
Compound | Tgt | AC50
c1ccc(-c2ccccc2-c2ccccc2)cc1 [o-Terphenyl] | CYP3A4 (Homo sapiens) | 24.7 µM
CCSC(=O)N(CC)C1CCCCC1 [Cycloate] | CYP3A4 (Homo sapiens) | 31.7 µM
CC(COc1ccc(Oc2ccccc2)cc1)Oc1ccccn1 (centres unmarked) [Pyriproxyfen] | CYP3A4 (Homo sapiens) | 29.7 µM
Cc1ccc(C(=O)O)cc1[N+](=O)[O-] [4-Methyl-3-nitrobenzoic acid] | CYP3A4 (Homo sapiens) | 35.3 µM

[Q] Answer briefly: AC50 recorded on CYP3A4 (Homo sapiens) for O=C1OC(=O)c2c(Cl)c(Cl)c(Cl)c(Cl)c21 [Tetrachlorophthalic anhydride]
[A] 34.7 µM

* * *

# Tgt: UniProt:P05177
# Sequence (P05177 whole entry): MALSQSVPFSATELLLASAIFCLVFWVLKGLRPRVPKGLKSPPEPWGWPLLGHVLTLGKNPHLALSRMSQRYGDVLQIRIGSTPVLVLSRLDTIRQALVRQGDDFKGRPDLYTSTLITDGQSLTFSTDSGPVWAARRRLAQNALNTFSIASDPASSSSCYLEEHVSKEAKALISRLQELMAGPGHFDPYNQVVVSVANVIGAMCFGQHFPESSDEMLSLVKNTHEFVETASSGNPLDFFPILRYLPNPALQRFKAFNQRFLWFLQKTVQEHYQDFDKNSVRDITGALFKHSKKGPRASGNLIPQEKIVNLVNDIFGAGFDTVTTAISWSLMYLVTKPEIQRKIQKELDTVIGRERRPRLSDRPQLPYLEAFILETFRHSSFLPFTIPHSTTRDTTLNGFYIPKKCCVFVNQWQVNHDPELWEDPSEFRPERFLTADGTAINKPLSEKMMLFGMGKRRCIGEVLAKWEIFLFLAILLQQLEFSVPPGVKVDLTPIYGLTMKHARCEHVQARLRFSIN
# Assay: biochemical
# Details: CYP1A2 AC50 (half-maximal activity concentration)
Property: log10(AC50) (log10 of the value in µM)
Recorded AC50 (log10, µM)

The following compounds have reported results that may help.
Compound | log10(AC50)
O=[N+]([O-])c1cccc(Cl)c1Cl | 1.54
O=C(CCN1CCC(c2ccccc2)C1)c1ccc2c(c1)OCCO2 (stereo not shown) | 1.51

[Q] Give the measured log10(AC50) for O=CC(Br)(Br)Br
[A] 1.47

[Q] Give the measured log10(AC50) for O=[N+]([O-])c1cc(C2CCCCC2)c(O)c([N+](=O)[O-])c1
[A] 1.85

[Q] Give the measured log10(AC50) for CC(O)(c1ccc(Cl)cc1)c1ccc(Cl)cc1
[A] 1.49

[Q] Give the measured log10(AC50) for CN(C)C(=O)C(c1ccccc1)c1ccccc1
[A] 1.70

[Q] Give the measured log10(AC50) for CC(C)(C)c1ccc(O)c(O)c1
[A] 1.78

[Q] Give the measured log10(AC50) for Nc1c(Cl)cc([N+](=O)[O-])cc1Cl
[A] 0.45

[Q] Give the measured log10(AC50) for CCCOC(=O)c1ccccc1C(=O)OCCC [Dipropyl phthalate]
[A] 0.38

[Q] Give the measured log10(AC50) for Oc1c(Br)c(Br)c(Br)c(Br)c1Br
[A] 1.76
